# System: HCC 2998
# assay_name: NCI tumour cell line growth inhibition, 48 h
The source made the active and inactive calls. Cut-off read from the data, not from the text of the source: active = GI50 up to about 1.1 µM and inactive = higher.
Allowed answers: true (active), false (inactive)

Exercise: What classification did "O=C(CSc1ncccn1)N/N=C/c1ccccc1OCc1ccccc1" end up with in this test?
Key: false

Exercise: What classification did "Cn1cnc([N+](=O)[O-])c1SC1=NCCS1" end up with in this test?
Key: false

Exercise: What classification did "[N-]=[N+]=NC1=C(N=[N+]=[N-])c2cccc3cccc(c23)C1=O" end up with in this test?
Key: false

Exercise: What classification did "CN(N=O)C(=O)NNC(=O)N(C)N=O" end up with in this test?
Key: false

Exercise: What classification did "C=C1c2[nH]c3c([N+](=O)[O-])c(OC)ccc3c2CCN1C(C)=O" end up with in this test?
Key: false

Exercise: What classification did CC(=O)O[C@H]1[C@@H]2OC(=O)[C@@](O)(CC3CCCO3)[C@@H]2CC(=O)[C@](C)(O)CC/C=C(\C)CCC[C@@H]1C (stereo not given in full) end up with in this test?
Key: false

Exercise: What classification did "COc1ccc(C=O)c(N(C)C(=O)C(C)(C)C)c1" end up with in this test?
Key: false

Exercise: What classification did "Brc1ccccc2cc(-c3ccccc3)nc1-2" end up with in this test?
Key: false

Exercise: What classification did CC(=O)NC1C(OC(C)C(=O)NC(C(=O)NC(CCC(=O)NCCCNC2c3ccccc3Nc3cccc([N+](=O)[O-])c32)C(N)=O)C(C)C)C(O)C(CO)OC1(C)OCc1ccccc1 (stereo not given) end up with in this test?
Key: true

Exercise: What classification did CC12OOC(c3ccccc31)c1c2ccc2ccccc12 (stereo not given) end up with in this test?
Key: false

###

# Test system: M14
# assay_name: NCI tumour cell line growth inhibition, 48 h
Active and inactive are the calls of the source. No stated cut-off is given here; in the data, active = GI50 up to about 1.1 µM and inactive = higher.
Allowed answers: yes = active, no = inactive

Exercise: What classification did "NCCCc1c(-c2ccccc2)[nH]c(N)nc1=O" end up with in this test?
Key: no

Exercise: What classification did CC1=C(C(=O)OC(C)C)C(c2ccccc2C(F)(F)F)C(C(=O)OC(CO[N+](=O)[O-])CO[N+](=O)[O-])=C(C)N1 (stereo not given) end up with in this test?
Key: no

Exercise: What classification did "O=C1c2nc3n(c2C(=O)c2c1nc1n2CCC1)CCC3" end up with in this test?
Key: no

Exercise: What classification did "O=[N+]([O-])c1ccc2nc3ccc([N+](=O)[O-])cn3c2c1" end up with in this test?
Key: no

Exercise: What classification did COC(CN(C(C)=O)C1CCC2(SCCS2)c2[nH]c3ccccc3c21)OC (stereo not given) end up with in this test?
Key: no

Exercise: What classification did "CN(Cc1cnc2nc(N)nc(N)c2n1)c1ccc(C(=O)NC2CCCCC2)cc1" end up with in this test?
Key: no

Exercise: What classification did "CC1=NN(C(=O)c2ccncc2)C(=O)C1" end up with in this test?
Key: no

Exercise: What classification did "O=[N+]([O-])C(=C(N1CCOCC1)N1CCOCC1)/C(Cl)=C(\Cl)[N+](=O)[O-]" end up with in this test?
Key: no

Exercise: What classification did COc1ccc(C2SCC(=O)N2c2ccc(-n3c(-c4ccccc4)nc4ccccc4c3=O)cc2)cc1 (stereo not given) end up with in this test?
Key: no

Exercise: What classification did COc1ccc(C2CCc3nc4nc(N)nc(N)c4cc3C2)cc1 (stereo not given) end up with in this test?
Key: no

Exercise: What classification did "COc1ccc(-c2cc(=O)c3c(OC)cccc3o2)c(OC)c1OC" end up with in this test?
Key: no

Exercise: What classification did "O=C1Cc2c(-c3ccccc3)cc(-c3cccc(Cl)c3)nc2-c2ccccc2N1" end up with in this test?
Key: no

Exercise: What classification did "COc1ccc(/C=C2\CCCCCC2=O)cc1" end up with in this test?
Key: no

Exercise: What classification did "Nc1nc(N)c2ncn(-c3ccc(Cl)c(Cl)c3)c2n1" end up with in this test?
Key: no

Exercise: What classification did CC1(C)O[C@@H]2C[C@H]3[C@@H]4C[C@H](F)C5=CC(=O)C=C[C@]5(C)[C@@]4(F)[C@@H](O)C[C@]3(C)[C@]2(C(=O)CO)O1 [FLUOCINOLONE ACETONIDE] end up with in this test?
Key: no

Exercise: What classification did CN(C)/N=N/c1nc2c(c(=O)n(C)c(=O)n2C)n1CC1CO1 (stereo not given) end up with in this test?
Key: no

Exercise: What classification did COC(OC)c1cccc2c1C1(O)CCC3(CC21)OCCCCO3 (stereo not given) end up with in this test?
Key: no

Exercise: What classification did "COC(=O)c1c(C#N)[nH]c(-c2ccsc2)c1C(=O)OC" end up with in this test?
Key: no

Exercise: What classification did "CC1(C)O[C@@H](CCl)C[C@@H](C#N)O1" end up with in this test?
Key: no

Exercise: What classification did CN1C2C=C(c3ccccc3)CC1CC2 (stereo not given) end up with in this test?
Key: no

Exercise: What classification did "CCOC(=O)c1c(N2CCOCC2)[nH]c(=O)c(C(c2c(O)c(C(=O)OCC)c(N3CCOCC3)[nH]c2=O)C(C)C)c1O" end up with in this test?
Key: no

Exercise: What classification did COc1cccc2c1C(=O)c1c(O)c3c(c(O)c1C2=O)C[C@@](O)(/C(C)=N/NC(=O)c1ccc(Cl)c(Cl)c1)C[C@@H]3OC1CC(N)C(O)C(C)O1 (stereo not given in full) end up with in this test?
Key: yes

Exercise: What classification did "C=C(C)[C@H]1CC(=O)/C(C)=C\CC/C(C)=C/CC[C@@]2(C)O[C@@H]2C1" end up with in this test?
Key: no

Exercise: What classification did O=C(O)CC(Cc1ccccc1)C(=O)O (stereo not given) end up with in this test?
Key: no

Exercise: What classification did C=CCC1([C@H](C)[C@@H](OC(C)=O)c2cc(OC)c(OC)c(OC)c2)C[C@@H](OC)CCC1=O (stereo not given in full) end up with in this test?
Key: no

Exercise: What classification did "CCSc1nc(N)c2c(-c3ccc(OC)c(OC)c3)c3c(nc2n1)CCCC3" end up with in this test?
Key: no

Exercise: What classification did "Oc1c2cc(Br)cc1CCc1cc(Br)cc(c1O)CC2" end up with in this test?
Key: no

Exercise: What classification did "O=Cc1cc(C(=O)OCc2ccccc2)n(S(=O)(=O)c2ccccc2)c1" end up with in this test?
Key: no

Exercise: What classification did COc1ccc(P2(=S)OCCOP(=S)(c3ccc(OC)cc3)S2)cc1 (stereo not given) end up with in this test?
Key: no

Exercise: What classification did "Clc1nc(Nc2nc3ccccc3[nH]2)nc(Cl)c1Cc1ccccc1" end up with in this test?
Key: no

Exercise: What classification did Cc1ccc(SC2C(=O)C3CC(OCc4ccccc4)C2(C)C3(C)C)cc1 (stereo not given) end up with in this test?
Key: no

Exercise: What classification did CCO/C=C1\N=C(C(Cl)c2ccccc2)OC1=O (stereo not given) end up with in this test?
Key: no

Exercise: What classification did Cc1c(Cc2ccccc2)n(C(C)OCCN(OC(=O)Oc2ccccc2)C(=O)Oc2ccccc2)c(=O)[nH]c1=O (stereo not given) end up with in this test?
Key: no

Exercise: What classification did COC(=O)C1CC(C(=O)OC)c2nc3cc([N+](=O)[O-])ccc3nc21 (stereo not given) end up with in this test?
Key: no

Exercise: What classification did "Cc1cc(S(=O)(=O)N/C(=C(\C#N)C(=O)c2ccc(Cl)cc2)[n+]2ccc(N(C)C)cc2)c([S-])cc1Cl" end up with in this test?
Key: no

Exercise: What classification did "COC(=O)Nc1nc2cc(NS(=O)(=O)c3ccc(F)cc3)ccc2[nH]1" end up with in this test?
Key: no

Exercise: What classification did "CC1=NC(=Cc2cc(Br)cc(Br)c2)C(=O)N1n1c(-c2ccccc2)nc2ccccc2c1=O" end up with in this test?
Key: no

Exercise: What classification did "O=c1oc2ccccc2c(Nc2ccc3c(c2)S(=O)(=O)c2ccccc2O3)c1[N+](=O)[O-]" end up with in this test?
Key: no

Exercise: What classification did O/N=C1/C(=C/c2ccccc2)CCCC1C(NO)c1ccccc1 (stereo not given) end up with in this test?
Key: no

Exercise: What classification did "CCC1(COC(NC(=O)c2ccccc2)(C(F)(F)F)C(F)(F)F)COC1" end up with in this test?
Key: no
